The reported numbers originate from patent US20240343803A1.

# Tgt: T1, Fusion protein of extracellular domain of cynomolgus monkey TIGIT and mouse IgG2a Fc fragment (cynomolgus … (cynomolgus monkey))
# T1 construct: The entry includes the signal peptide (limits not recoverable) and the mouse IgG2a Fc
# Assay comment: ELISA, cynomolgus monkey TIGIT ECD-mFc
# Description: After discarding the coating solution, the plate was added with 5% skim milk powder (Sangon Biotech, CAT #A600669-0250)-PBS, 250 μL/well, and incubated at 37° C. for 2-4 hours. […] 1M HCL, 50 μL/well, was then added into the plate to terminate the reaction, and the OD450 nm was read by a microplate reader (Biotek, Powerwave HT). […]
Measured parameter: EC50

TIGIT-005-H2L1d (antibody, V domains shown, Humanized anti-TIGIT antibody with NG-site mutation in VL) VH: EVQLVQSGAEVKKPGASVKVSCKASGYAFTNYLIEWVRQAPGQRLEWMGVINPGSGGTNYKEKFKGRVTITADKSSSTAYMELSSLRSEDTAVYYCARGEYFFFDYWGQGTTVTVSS VL: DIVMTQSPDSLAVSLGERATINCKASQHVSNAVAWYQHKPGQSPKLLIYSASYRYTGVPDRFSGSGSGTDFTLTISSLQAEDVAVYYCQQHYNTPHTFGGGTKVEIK = 0.0403 nM
TIGIT-002-H3L3 (antibody, V domains shown, Humanized anti-TIGIT antibody) VH: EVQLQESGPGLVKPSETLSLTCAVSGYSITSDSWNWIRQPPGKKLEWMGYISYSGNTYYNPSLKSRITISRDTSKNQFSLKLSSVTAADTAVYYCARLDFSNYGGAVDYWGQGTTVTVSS VL: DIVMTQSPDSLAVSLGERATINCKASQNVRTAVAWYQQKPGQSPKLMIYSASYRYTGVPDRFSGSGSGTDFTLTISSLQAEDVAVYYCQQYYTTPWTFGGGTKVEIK = 0.022 nM

Please look at the following binder next.
Q. // query EC50 value for entry TIGIT-070-H1L1 (antibody, V domains shown, Humanized anti-TIGIT antibody) VH: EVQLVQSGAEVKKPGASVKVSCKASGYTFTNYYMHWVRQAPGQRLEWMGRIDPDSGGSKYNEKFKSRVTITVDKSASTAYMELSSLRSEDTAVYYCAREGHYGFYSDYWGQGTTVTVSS VL: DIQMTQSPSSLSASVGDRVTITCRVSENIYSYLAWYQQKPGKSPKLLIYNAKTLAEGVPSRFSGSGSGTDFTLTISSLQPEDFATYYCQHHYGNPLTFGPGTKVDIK
A. 0.0123 nM
